# Stability annotations
assay comment: Metabolic stability in mouse liver microsomes
Type: ADME, Microsome

mol | comparison operator | Stability (nmol/min/mg)
COC1CCN(c2cc(C)c3nc(-c4c(NC[C@@H](O)c5cccc(Cl)c5)cc[nH]c4=O)[nH]c3c2)CC1 | > | 0.2
Cc1cc(N2CCC(N3CCN(C(=O)N4CCN(C)CC4)CC3)CC2)cc2[nH]c(-c3c(NC[C@@H](O)c4cccc(Cl)c4)cc[nH]c3=O)nc12 | < | 0.1
Cc1cc(N2CCC(O)CC2)cc2[nH]c(-c3c(NC[C@@H](O)c4cccc(Cl)c4)cc[nH]c3=O)nc12 | = | 0.1
Cc1cc(N2CCC(NC(=O)C3CC3)CC2)cc2[nH]c(-c3c(NC[C@@H](O)c4cccc(Cl)c4)cc[nH]c3=O)nc12 | = | 0.1

* * *

assay comment: Metabolic stability in mouse liver microsomes
Type: ADME, Microsome

mol | Stability
Cc1cc(N2CCC(N3CCN(C(=O)N4CCOCC4)CC3)CC2)cc2[nH]c(-c3c(NC[C@@H](O)c4cccc(Cl)c4)cc[nH]c3=O)nc12 | < 0.1 nmol/min/mg
CC(=O)N1CCN(C2CCN(c3cc(C)c4nc(-c5c(NC[C@@H](O)c6cccc(Cl)c6)cc[nH]c5=O)[nH]c4c3)CC2)CC1 | < 0.1 nmol/min/mg
COC(=O)N1CCN(C2CCN(c3cc(C)c4nc(-c5c(NC[C@@H](O)c6cccc(Cl)c6)cc[nH]c5=O)[nH]c4c3)CC2)CC1 | < 0.1 nmol/min/mg
COCC(=O)N1CCN(C2CCN(c3cc(C)c4nc(-c5c(NC[C@@H](O)c6cccc(Cl)c6)cc[nH]c5=O)[nH]c4c3)CC2)CC1 | < 0.1 nmol/min/mg
Cc1cc(N2CCC(OCCO)CC2)cc2[nH]c(-c3c(NC[C@@H](O)c4cccc(Cl)c4)cc[nH]c3=O)nc12 | > 0.2 nmol/min/mg
Cc1cc(N2CCC3(CC2)OCCO3)cc2[nH]c(-c3c(NC[C@@H](O)c4cccc(Cl)c4)cc[nH]c3=O)nc12 | 0.1 nmol/min/mg
Cc1cc(N2CCC(N3CCN(C(=O)OCCO)CC3)CC2)cc2[nH]c(-c3c(NC[C@@H](O)c4cccc(Cl)c4)cc[nH]c3=O)nc12 | < 0.1 nmol/min/mg
Cc1cc(N2CCC(N3CCN(C)CC3)CC2)cc2[nH]c(-c3c(NC[C@@H](O)c4cccc(Cl)c4)cc[nH]c3=O)nc12 | < 0.1 nmol/min/mg
COCCOC1CCN(c2cc(C)c3nc(-c4c(NC[C@@H](O)c5cccc(Cl)c5)cc[nH]c4=O)[nH]c3c2)CC1 | 0.1 nmol/min/mg
COCCOCC(=O)N1CCN(C2CCN(c3cc(C)c4nc(-c5c(NC[C@@H](O)c6cccc(Cl)c6)cc[nH]c5=O)[nH]c4c3)CC2)CC1 | < 0.1 nmol/min/mg
Cc1cc(N2CCC(N3CCN(C(=O)C4CC4)CC3)CC2)cc2[nH]c(-c3c(NC[C@@H](O)c4cccc(Cl)c4)cc[nH]c3=O)nc12 | < 0.1 nmol/min/mg
COCCOC(=O)N1CCN(C2CCN(c3cc(C)c4nc(-c5c(NC[C@@H](O)c6cccc(Cl)c6)cc[nH]c5=O)[nH]c4c3)CC2)CC1 | < 0.1 nmol/min/mg
Cc1cc(N2CCC(N3C[C@@H](C)O[C@@H](C)C3)CC2)cc2[nH]c(-c3c(NC[C@@H](O)c4cccc(Cl)c4)cc[nH]c3=O)nc12 | < 0.1 nmol/min/mg
Cc1cc(N2CCC(N3CCOCC3)CC2)cc2[nH]c(-c3c(NC[C@@H](O)c4cccc(Cl)c4)cc[nH]c3=O)nc12 | 0.1 nmol/min/mg
COC(=O)NC1CCN(c2cc(C)c3nc(-c4c(NC[C@@H](O)c5cccc(Cl)c5)cc[nH]c4=O)[nH]c3c2)CC1 | 0.1 nmol/min/mg
Cc1cc(N2CCOCC2)cc2[nH]c(-c3c(NC[C@@H](O)c4cccc(Cl)c4)cc[nH]c3=O)nc12 | 0.1 nmol/min/mg
